// provenance: patent US20240050447A1

Assay: in vivo
Details: Beagle, dog, iv, 1 mg/kg, mean t1/2
quantityName: half-life (min)

lineNotation | recordedMeasurement
C[C@]12CC[C@H](O)CC1=CC[C@@H]1[C@@H]2CC[C@]2(C)C(c3cccnc3)=CC[C@@H]12 | 126

* * *

Assay: in vivo
Conditions: male, beagle, dog, plasma, im, 60 mg/kg, mean abiraterone AUCINF after IM, corrected for dose and time units, dogs; 60 mg/kg IM administration (abiraterone decanoate)
quantityName: AUC(0-inf)

lineNotation | recordedMeasurement
C[C@]12CC[C@H](O)CC1=CC[C@@H]1[C@@H]2CC[C@]2(C)C(c3cccnc3)=CC[C@@H]12 | 70.4 ng·h/mL

* * *

Assay: PK modelling and deconvolution of abiraterone plasma profiles, rats (Example 7D)
Conditions: rat, plasma, iv, […]

lineNotation | quantityUnit | Vd
C[C@]12CC[C@H](O)CC1=CC[C@@H]1[C@@H]2CC[C@]2(C)C(c3cccnc3)=CC[C@@H]12 | L/kg | 22.3

* * *

Assay: in vivo
Details: monkey, plasma, intramuscular, 90 mg/kg
quantityName: half-life (days)

lineNotation | quantityName | quantityUnit | recordedMeasurement
C[C@]12CC[C@H](O)CC1=CC[C@@H]1[C@@H]2CC[C@]2(C)C(c3cccnc3)=CC[C@@H]12 | half-life | days | 13.5

* * *

Assay: in vivo
Conditions: male, cynomolgus monkey, plasma, iv, […]
quantityName: half-life (h)

molecule | recordedMeasurement
CCCCCCCCCC(=O)O[C@H]1CC[C@@]2(C)C(=CC[C@@H]3[C@@H]2CC[C@]2(C)C(c4cccnc4)=CC[C@@H]32)C1 [Abiraterone Decanoate, Abiraterone decanoate] | 2.27

* * *

Assay: in vivo
Details: Beagle, dog, im, mean decanoate Tmax, range between the two IM formulations
quantityName: Tmax

compound | recordedMeasurement
CCCCCCCCCC(=O)O[C@H]1CC[C@@]2(C)C(=CC[C@@H]3[C@@H]2CC[C@]2(C)C(c4cccnc4)=CC[C@@H]32)C1 [Abiraterone Decanoate, Abiraterone decanoate] | 2.64 to 6.24 h

* * *

Assay: PK modelling and deconvolution of abiraterone plasma profiles, dogs (Example 7D)
Conditions: dog, plasma, iv, […]
quantityName: clearance

lineNotation | recordedMeasurement
C[C@]12CC[C@H](O)CC1=CC[C@@H]1[C@@H]2CC[C@]2(C)C(c3cccnc3)=CC[C@@H]12 | 108 mL/min/kg

* * *

Experiment: in vivo
Settings: male, beagle, dog, plasma, im, 87 mg/kg
quantityName: Vd/F (L/kg)

compound | quantityName | recordedMeasurement
CCCCCCCCCC(=O)O[C@H]1CC[C@@]2(C)C(=CC[C@@H]3[C@@H]2CC[C@]2(C)C(c4cccnc4)=CC[C@@H]32)C1 [Abiraterone Decanoate, Abiraterone decanoate] | Vd/F | 2850

* * *

Experiment: Plasma PK in rats after IM injection of abiraterone or abiraterone acetate formulations (Example 5A)
Details: male, rat, Tmax, Group 3: IM abiraterone suspension in castor oil (62.5 mg/ml), group mean
quantityName: Tmax (h)

compound | quantityUnit | recordedMeasurement
C[C@]12CC[C@H](O)CC1=CC[C@@H]1[C@@H]2CC[C@]2(C)C(c3cccnc3)=CC[C@@H]12 [Abiraterone] | h | 2.6

* * *

Experiment: in vivo
Conditions: male, beagle, dog, plasma, im, 77 mg/kg, t1/2, dogs (N=3); Group 2: IM 77 mg/kg abiraterone isocaproate, 158 mg/ml in 90% corn oil/10% benzyl alcohol; plasma analyte = label; mean

lineNotation | half-life
C[C@]12CC[C@H](O)CC1=CC[C@@H]1[C@@H]2CC[C@]2(C)C(c3cccnc3)=CC[C@@H]12 | 223 h
